Cited source for all entries: ChEMBL document CHEMBL3244075

Entries and their Activity values follow.
System: Rattus norvegicus
assay-comment: Hypoglycemic activity in 48 hrs-fasted rat assessed as change in blood glucose level at dose equivalent to 102 mg of free base/kg, po measured at 2 hrs relative to control
Assay type: functional
Reply with just the number (in %).

Some solved cases for reference:
- Cc1ccc[n+]2cc(-c3ccccc3)sc12.O.[O-][Cl+3]([O-])([O-])[O-]: -42
- CSc1ccc(-c2c[n+]3ccccc3s2)cc1.O.[O-][Cl+3]([O-])([O-])[O-]: -11
- Nc1ccc(-c2c[n+]3ccccc3s2)cc1.O.[O-][Cl+3]([O-])([O-])[O-]: 1

Entry [O-][Cl+3]([O-])([O-])[O-].c1cc[n+]2ccsc2c1 — recorded Activity = -20

Quick note, Activity for O=S(=O)([O-])c1ccc(-c2ccc(-c3c[n+]4ccccc4s3)cc2)cc1 landed at 3

* * *

System: Rattus norvegicus
assay-comment: Hypoglycemic activity in 48 hrs-fasted rat assessed as change in blood glucose level at dose equivalent to 102 mg of free base/kg, po measured at 2 hrs relative to control
Assay type: functional
experimental-endpoint: Activity (%)
Answer in %, number only, no unit symbol.

- CC(C)Oc1cccc(-c2c[n+]3ccccc3s2)c1.[O-][Cl+3]([O-])([O-])[O-]: -1
- CN(C)/C=N/c1cccc(-c2c[n+]3ccccc3s2)c1.O.[O-][Cl+3]([O-])([O-])[O-]: 0
- O=C([O-])C(F)(F)F.c1ccc(-c2c[n+]3ccccc3s2)cc1: -9
- CC(=O)Nc1cccc(-c2c[n+]3ccccc3s2)c1.[O-][Cl+3]([O-])([O-])[O-]: 8
- O.O=S(=O)([O-])O.O=[N+]([O-])c1cccc(-c2c[n+]3ccccc3s2)c1: -7

Reported Activity for Cc1ccc2sc(-c3ccccc3)c[n+]2c1.[O-][Cl+3]([O-])([O-])[O-] was -30

Activity reported for this compound O=S(=O)([O-])c1ccc(-c2c[n+]3ccccc3s2)s1 : 5

Form field Activity, entry CS(=O)(=O)c1ccc(-c2c[n+]3ccccc3s2)cc1.[O-][Cl+3]([O-])([O-])[O-] : -8

// Cc1cc[n+]2cc(-c3ccccc3)sc2c1.[O-][Cl+3]([O-])([O-])[O-] : Activity value = -4

* * *

Tested on: Rattus norvegicus
assay-comment: Hypoglycemic activity in 48 hrs-fasted rat assessed as change in blood glucose level at dose equivalent to 68 mg of free base/kg, po measured at 3 hrs relative to control
Format: functional
Reported values of Activity for individual entries
Number only, in %; omit the unit.

Worked examples, 3 compounds total:
• O.O=S(=O)([O-])O.c1ccc(-c2c[n+]3ccccc3s2)cc1 = -21
• O=C([O-])C(F)(F)F.c1ccc(-c2c[n+]3ccccc3s2)cc1 = -15
• O.[Cl-].c1ccc(-c2c[n+]3ccccc3s2)cc1 = -31

Kindly note the recorded Activity for [O-][Cl+3]([O-])([O-])[O-].c1ccc(-c2c[n+]3ccccc3s2)cc1 , which is -17

* * *

Measured Activity, listed per entry for reference.
Test system: Rattus norvegicus
assay-comment: Hypoglycemic activity in 48 hrs-fasted rat assessed as change in blood glucose level at dose equivalent to 102 mg of free base/kg, po measured at 5 hrs relative to control
Type: functional
The reply should be a number in %, with the unit left off.

Worked set:
• Cc1cc[n+]2cc(-c3ccccc3)sc2c1.[O-][Cl+3]([O-])([O-])[O-] = -22
• Brc1ccc(-c2c[n+]3ccccc3s2)cc1.O.O=S(=O)([O-])O = 1
• [O-][Cl+3]([O-])([O-])[O-].c1cc[n+]2ccsc2c1 = -12
• Nc1ccc(-c2c[n+]3ccccc3s2)cc1.O.[O-][Cl+3]([O-])([O-])[O-] = -14

Item CSc1ccc(-c2c[n+]3ccccc3s2)cc1.O.[O-][Cl+3]([O-])([O-])[O-] ; assay system Rattus norvegicus; Activity reported as -2

Note to self: Activity of Cc1ccc2sc(-c3ccccc3)c[n+]2c1.[O-][Cl+3]([O-])([O-])[O-] with Rattus norvegicus was -16

Form: item CN(C)/C=N/c1cccc(-c2c[n+]3ccccc3s2)c1.O.[O-][Cl+3]([O-])([O-])[O-] ; test system Rattus norvegicus; Activity: 22

The reported Rattus norvegicus Activity of CS(=O)(=O)c1ccc(-c2c[n+]3ccccc3s2)cc1.[O-][Cl+3]([O-])([O-])[O-] is -2

Lab note: compound Cc1ccc[n+]2cc(-c3ccccc3)sc12.O.[O-][Cl+3]([O-])([O-])[O-] tested on Rattus norvegicus; recorded Activity was -50

Entry CC(=O)Nc1cccc(-c2c[n+]3ccccc3s2)c1.[O-][Cl+3]([O-])([O-])[O-] ; assay system Rattus norvegicus; Activity recorded at 4

Value sought: Activity, system Rattus norvegicus, item Nc1cccc(-c2c[n+]3ccccc3s2)c1.[O-][Cl+3]([O-])([O-])[O-] . Result: -8

The compound O=S(=O)([O-])c1ccc(-c2c[n+]3ccccc3s2)s1 , tested on Rattus norvegicus, showed Activity of 6

Entry O.O=S(=O)([O-])O.O=[N+]([O-])c1cccc(-c2c[n+]3ccccc3s2)c1 , tested on Rattus norvegicus, has a reported Activity of 0
